From: patent US20240084003A1

OD450 for assorted binders
Target: T1, murine CD22 protein (ACROBiosystems, SI2-M52Ha) (murine, UniProt P35329 22-708)
T1 construct: extracellular domain; also called murine CD22-ECD; murine CD22-ECD-His
T1 sequence (looked up): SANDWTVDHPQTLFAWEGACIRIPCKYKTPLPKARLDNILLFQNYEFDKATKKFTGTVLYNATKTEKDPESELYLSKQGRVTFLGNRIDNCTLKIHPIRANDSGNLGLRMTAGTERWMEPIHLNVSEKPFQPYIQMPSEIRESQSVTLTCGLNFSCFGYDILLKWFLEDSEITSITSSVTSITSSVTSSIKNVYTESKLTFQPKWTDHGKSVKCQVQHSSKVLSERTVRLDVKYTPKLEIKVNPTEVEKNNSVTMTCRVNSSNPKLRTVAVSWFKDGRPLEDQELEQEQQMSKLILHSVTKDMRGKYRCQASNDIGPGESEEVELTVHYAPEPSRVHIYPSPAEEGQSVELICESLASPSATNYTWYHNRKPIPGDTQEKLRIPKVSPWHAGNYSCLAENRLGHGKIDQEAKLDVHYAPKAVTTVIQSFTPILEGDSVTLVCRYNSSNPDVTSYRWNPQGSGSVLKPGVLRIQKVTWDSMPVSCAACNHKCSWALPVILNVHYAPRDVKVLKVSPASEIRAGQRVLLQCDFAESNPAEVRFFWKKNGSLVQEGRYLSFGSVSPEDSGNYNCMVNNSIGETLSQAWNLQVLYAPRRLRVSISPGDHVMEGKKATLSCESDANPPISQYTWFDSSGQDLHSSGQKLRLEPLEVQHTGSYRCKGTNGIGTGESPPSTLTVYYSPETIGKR
Assay: ELISA, coated murine CD22, 100 nM Ab

F1.216.2 human-murine chimeric antibody (antibody, human IgG1, kappa, V domains shown, Chimeric, human IgG1 / kappa) VH: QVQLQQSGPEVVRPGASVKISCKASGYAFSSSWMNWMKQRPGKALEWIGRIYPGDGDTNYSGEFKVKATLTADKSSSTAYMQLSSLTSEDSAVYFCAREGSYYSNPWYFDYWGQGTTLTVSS VL: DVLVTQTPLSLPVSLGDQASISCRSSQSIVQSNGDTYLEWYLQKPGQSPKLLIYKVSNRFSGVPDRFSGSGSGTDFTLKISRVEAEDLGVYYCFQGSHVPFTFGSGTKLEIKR
0.08 OD450

Recorded OD450 for F1.280.1 human-murine chimeric antibody (antibody, human IgG1, kappa, V domains shown, Chimeric, human IgG1 / kappa) VH: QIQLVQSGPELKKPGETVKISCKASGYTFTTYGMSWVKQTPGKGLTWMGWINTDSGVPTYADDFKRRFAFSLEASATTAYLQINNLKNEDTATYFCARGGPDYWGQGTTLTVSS VL: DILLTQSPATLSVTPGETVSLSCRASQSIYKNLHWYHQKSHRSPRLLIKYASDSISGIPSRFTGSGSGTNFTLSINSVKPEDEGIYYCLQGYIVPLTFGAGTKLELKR , please?
0.16 OD450

Proceed to F2.121.9 human-murine chimeric antibody (antibody, human IgG1, lambda, V domains shown, Chimeric, human IgG1 / lambda) VH: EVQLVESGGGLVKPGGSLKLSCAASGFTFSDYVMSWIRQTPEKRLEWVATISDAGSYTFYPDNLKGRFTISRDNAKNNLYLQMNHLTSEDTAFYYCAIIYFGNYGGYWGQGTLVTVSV VL: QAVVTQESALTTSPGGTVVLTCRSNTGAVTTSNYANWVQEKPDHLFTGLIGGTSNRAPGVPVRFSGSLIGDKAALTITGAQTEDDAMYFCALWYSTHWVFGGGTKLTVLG
0.06 OD450

Proceed to F2.151.13 human-murine chimeric antibody (antibody, human IgG1, lambda, V domains shown, Chimeric, human IgG1 / lambda) VH: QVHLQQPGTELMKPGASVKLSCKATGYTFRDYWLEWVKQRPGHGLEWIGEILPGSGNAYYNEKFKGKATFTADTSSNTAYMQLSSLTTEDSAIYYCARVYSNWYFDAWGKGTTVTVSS VL: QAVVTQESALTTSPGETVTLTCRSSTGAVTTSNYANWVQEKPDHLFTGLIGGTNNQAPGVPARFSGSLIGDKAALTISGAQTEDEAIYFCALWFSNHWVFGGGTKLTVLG
0.09 OD450
